Please provide measured enrichment ratio for the entries that follow.
B1: PhoQ; a variant is named by its letters at X, in order, P23837 (parent)
chain: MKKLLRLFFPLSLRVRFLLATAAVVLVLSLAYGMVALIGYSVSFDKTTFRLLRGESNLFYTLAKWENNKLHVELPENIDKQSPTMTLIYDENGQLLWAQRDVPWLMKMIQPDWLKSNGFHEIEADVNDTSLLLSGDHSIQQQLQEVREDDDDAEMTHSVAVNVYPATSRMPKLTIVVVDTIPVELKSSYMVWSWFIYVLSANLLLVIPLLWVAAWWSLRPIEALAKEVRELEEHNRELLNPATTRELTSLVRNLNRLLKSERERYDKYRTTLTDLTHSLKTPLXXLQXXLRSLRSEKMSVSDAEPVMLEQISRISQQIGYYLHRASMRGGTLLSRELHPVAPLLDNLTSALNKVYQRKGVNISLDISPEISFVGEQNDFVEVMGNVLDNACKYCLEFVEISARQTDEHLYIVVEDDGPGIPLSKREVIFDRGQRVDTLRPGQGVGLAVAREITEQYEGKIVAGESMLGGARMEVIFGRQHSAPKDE

# Variants of: B1
# methodSummary: enrichment ratio after two sorts for PhoP signalling (ratio (wild type AVST 3.29)); higher = more functional
# conditionSet: with PhoP (E. coli)
In all, about 140,000 sequences were measured (“enrichment ratio after two sorts for PhoP signalling”: median about 0, highest 2% from about 11 on). The list comes from a sample in which the highest values are over-represented; it also holds close analogues and randomly drawn sequences.
Lab note: jot down the number only; don't add units.

Item under review: SELG . Reported enrichment ratio?
25.3

Same for SILQ
6.96

// same read-out, input: SQLQ
13.6

And the next one, TITC ?
12.2

And what about the variant SSST ?
12.7

Item: MQWG
4.64

Would you kindly repeat that for YALQ ?
4.04

Now try TINK .
7.27

Next variant up: MQLG
22

What about this variant? TMLQ
12.2
